Target Or System: human OX2 receptor (Homo sapiens)
Construct: expressed in transfected cells; host or cells: CHO cells
Test Method Notes: Measurement of orexin receptor antagonistic activity (calcium fluorescence, FLIPRtetra)
Assay type: cell-based
Test Settings: CHO, 10 μM test compound; CHO cells expressing human OX2 receptor; OX-A 0.3 nM; read-out: Human Orexin2 receptor inhibition (at 10 μM)
Endpoint Label: inhibition at 10 µM (%)
Numbers only, in %.

- Compound: "Cc1ccc(-n2nccn2)c(C(=O)N2CCON(c3cc(C)nc(C)c3)CC2)c1 [Example 35]"
  inhibition at 10 µM, %: 5

I would be grateful if you could provide inhibition at 10 µM for each of the following entries.
1. C[C@H]1CN(C(=O)c2ccccc2-n2nccn2)CCN(c2cc(C(F)(F)F)nc(C3CC3)n2)O1 [Example 97]
2. Cc1cc(N2CCN(C(=O)c3ccccc3-c3noc(C)n3)C[C@H](C)O2)nc(C)n1 [Example 232]
3. Cc1ccc(-n2nccn2)c(C(=O)N2[C@H](C)CON(c3cc(C(F)F)nc(C)n3)C[C@@H]2C)c1 [Example 179]
4. Cc1ccc(C#N)c(N2CCN(C(=O)c3ccccc3-n3nccn3)[C@H](C)CO2)n1 [Example 156]

A)
1. 100
2. 102
3. 98
4. 19

I would be grateful if you could provide inhibition at 10 µM for each of the following entries.
1. Cc1cc(N2CCN(C(=O)c3ccccc3-n3ncnn3)CCO2)nc(C)n1 [Example 31]
2. Cc1cc(N2CCN(C(=O)c3ccccc3-c3ncc(F)s3)CCO2)nc(C)n1 [Example 17]
3. CCOC(=O)c1cc(N2CCN(C(=O)c3cc(Cl)ccc3-n3nccn3)C[C@H](C)O2)nc(C)n1 [Example 208]
4. Cc1ncc(Cl)c(N2CCN(C(=O)c3cc(Cl)ccc3-c3ncccn3)[C@H](C)CO2)n1 [Example 230]
5. C[C@H]1CN(C(=O)c2ccccc2-n2nccn2)CCN(c2ccn3nccc3n2)O1 [Example 99]
6. Cc1cc(N2CCN(C(=O)c3ccccc3-n3nccn3)C[C@H](C)O2)nc(C(F)(F)F)n1 [Example 94]
7. Cc1cc(N2CCN(C(=O)c3ccccc3-c3nc(C)no3)CCO2)nc(C)n1 [Example 24]

A)
100
102
14
103
98
104
99

###

Target Or System: human OX2 receptor (Homo sapiens)
Construct: expressed in transfected cells; host or cells: CHO cells
Sequence (O43614 1-444): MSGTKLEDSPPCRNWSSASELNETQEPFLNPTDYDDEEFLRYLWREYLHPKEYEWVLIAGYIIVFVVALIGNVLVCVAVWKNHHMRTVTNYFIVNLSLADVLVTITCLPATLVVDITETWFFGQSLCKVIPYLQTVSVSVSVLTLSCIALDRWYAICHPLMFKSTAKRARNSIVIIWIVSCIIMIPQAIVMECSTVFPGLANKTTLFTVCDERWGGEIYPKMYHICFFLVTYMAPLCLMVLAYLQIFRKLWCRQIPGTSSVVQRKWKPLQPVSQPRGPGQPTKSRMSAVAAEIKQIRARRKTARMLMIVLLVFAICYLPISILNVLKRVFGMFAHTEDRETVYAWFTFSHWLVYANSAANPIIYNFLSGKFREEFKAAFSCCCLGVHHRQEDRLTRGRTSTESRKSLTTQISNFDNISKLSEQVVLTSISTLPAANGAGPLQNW
Test Method Notes: Measurement of orexin receptor antagonistic activity (calcium fluorescence, FLIPRtetra)
Type: cell-based
Test Settings: CHO, 10 μM test compound; CHO cells expressing human OX2 receptor; OX-A 0.3 nM; read-out: Human Orexin2 receptor inhibition (at 10 μM)
Endpoint Label: inhibition at 10 µM (%)
Answers are plain numbers, in %.

I would be grateful if you could provide inhibition at 10 µM for each of the following entries.
1. Cc1cc(N2CCN(C(=O)c3ccc(Cl)cc3-n3nccn3)CCO2)nc(C)n1
2. Cc1cc(C)nc(N2CCN(C(=O)c3ccccc3Cl)CCO2)n1
3. Cc1nc(N2CCN(C(=O)c3ccccc3-c3nccs3)C[C@H](C)O2)cc(C(F)(F)F)n1
4. COc1cc(N2CCN(C(=O)c3ccccc3-n3nccn3)[C@H](C)CO2)nc(OC)n1
5. CC[C@@H]1CON(c2cc(C)nc(C)n2)CCN1C(=O)c1ccccc1-c1nccs1
6. C[C@H]1CN(C(=O)c2ccccc2-c2nccs2)CCN(c2ccc(Cl)cn2)O1
7. Cc1nc(N2CCN(C(=O)c3cc(F)ccc3-n3nccn3)C[C@H](C)O2)cc(C(F)(F)F)n1

A)
1: 101; 2: 57; 3: 102; 4: 99; 5: 99; 6: 96; 7: 101

Q) Name the reported inhibition at 10 µM value associated with the compound Cc1cc(N2CCN(C(=O)c3cc(Cl)ccc3-c3ncccn3)C[C@H](C)O2)nc(C)n1
A) 102

###

Target Or System: human OX1 receptor (Homo sapiens)
Construct: expressed in transfected cells; host or cells: CHO cells
Sequence (O43613 1-425): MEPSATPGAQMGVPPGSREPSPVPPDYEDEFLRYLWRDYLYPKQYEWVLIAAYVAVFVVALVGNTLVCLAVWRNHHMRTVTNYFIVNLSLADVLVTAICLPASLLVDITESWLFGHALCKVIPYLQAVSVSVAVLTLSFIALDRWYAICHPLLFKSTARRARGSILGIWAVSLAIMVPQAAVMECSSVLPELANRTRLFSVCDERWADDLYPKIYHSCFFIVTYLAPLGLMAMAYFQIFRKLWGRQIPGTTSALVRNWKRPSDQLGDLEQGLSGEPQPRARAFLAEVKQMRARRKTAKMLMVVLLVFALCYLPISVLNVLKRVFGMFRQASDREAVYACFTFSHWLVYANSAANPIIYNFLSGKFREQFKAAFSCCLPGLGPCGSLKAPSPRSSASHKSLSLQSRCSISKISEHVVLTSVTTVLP
Test Method Notes: Measurement of orexin receptor antagonistic activity (calcium fluorescence, FLIPRtetra)
Assay type: cell-based
Test Settings: CHO, 10 μM test compound; CHO cells expressing human OX1 receptor; OX-A 1 nM; read-out: Human Orexin1 receptor inhibition (at 10 μM)
Where a name gives a salt, the structure may show the parent alone.
just bin them by inhibition at 10 µM: low value (below 50%), medium value (50% to below 90%), high value (90% or more)

Below, 3 molecules whose answers are already recorded.
- Molecule: "Cc1ccc(C#N)c(N2CCN(C(=O)c3ccccc3-n3nccn3)[C@H](C)CO2)n1"
  Qualitative Label: "low value"
- Molecule: "Cc1cc(N2CCN(C(=O)c3ccccc3-c3nccs3)C[C@H](C)O2)nc(C)n1"
  Qualitative Label: "high value"
- Molecule: "Cc1cc(N2CCN(C(=O)c3ccccc3-c3nccs3)[C@@H](C)CO2)nc(C)n1"
  Qualitative Label: "low value"

Q) Into which category would you place CCc1ccc(-n2nccn2)c(C(=O)N2CCN(c3cc(C)nc(C)n3)O[C@@H](C)C2)c1 ?
A) medium value

Q) Cc1cc(N2CCN(C(=O)c3cc(Cl)ccc3-n3nccn3)CCO2)nc(C)n1 ?
A) medium value

Q) Cc1nc(C(F)F)cc(N2C[C@H](C)N(C(=O)c3cc(Cl)ccc3-n3nccn3)[C@H](C)CO2)n1 ?
A) high value

Q) Cc1cc(N2CCN(C(=O)c3cc(C(F)(F)F)ccc3-n3nccn3)CCO2)nc(C)n1 ?
A) low value

Q) C[C@H]1CN(C(=O)c2ccccc2-n2nccn2)CCN(c2ccn3nccc3n2)O1 ?
A) medium value

Q) Cc1cc(N2CCN(C(=O)c3ccccc3-n3nccn3)[C@H](C)CO2)nc(C2(C)CC2)n1 [Example 155, hydrochloride] ?
A) high value

Q) Cc1cc(N2C[C@H](C)N(C(=O)c3ccccc3-n3nccn3)[C@H](C)CO2)ncn1 ?
A) high value

Q) Cc1cc(N2CCN(C(=O)c3cc(F)c(F)cc3-c3ncccn3)C[C@H](C)O2)nc(C)n1 ?
A) medium value

###

Target Or System: human OX2 receptor (Homo sapiens, UniProt O43614)
Construct: expressed in transfected cells; host or cells: CHO cells
Test Method Notes: Measurement of orexin receptor antagonistic activity (calcium fluorescence, FLIPRtetra)
Format: cell-based
Test Settings: CHO, 10 μM test compound; CHO cells expressing human OX2 receptor; OX-A 0.3 nM; read-out: Human Orexin2 receptor inhibition (at 10 μM)
Endpoint Label: inhibition at 10 µM (%)
Give bare numbers, in %.

Field: example entries. Status: answers known.
- Smiles Representation: "Cc1cc(N2CCN(C(=O)c3cc(Cl)ccc3-n3nccn3)[C@H](C)CO2)nc(C)n1"
  Endpoint Label: "inhibition at 10 µM"
  Reading: 100
- Smiles Representation: "Cc1cc(C)nc(N2CCN(C(=O)c3ccccc3-c3ccccc3)CCO2)n1"
  Endpoint Label: "inhibition at 10 µM"
  Reading: 98
- Smiles Representation: "CCc1ccc(-n2nccn2)c(C(=O)N2CCON(c3cc(C)nc(C)n3)CC2)c1"
  Endpoint Label: "inhibition at 10 µM"
  Reading: 101

Q) For the record Cc1cc(N2CCN(C(=O)c3cc(F)c(F)cc3-n3nccn3)C[C@H](C)O2)nc(C)n1 , what value of inhibition at 10 µM is listed for human OX2 receptor (Homo sapiens, UniProt O43614)?
A) 99
